- Tested on: OCI-AML2
- RUN_DESCRIPTION: cell viability relative to vehicle control; higher = less cytotoxic;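 further: after 48 h exposure read by CellTiter-Glo luminescence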
- PARTICULARS: 10 µM; SRSF2 genotype: wt/wt
Structures can show the parent of a compound that is named as a salt.
Parameter: cell viability. Scope: all listed entries.
MEASUREMENT_LABEL: cell viability (%)

• O=C(N[C@H](CO)[C@H](O)c1ccc([N+](=O)[O-])cc1)C(Cl)Cl = 103
• COc1ccc(-c2oc3c(CC=C(C)C)c(O[C@@H]4O[C@H](CO)[C@@H](O)[C@H](O)[C@H]4O)cc(O)c3c(=O)c2O[C@@H]2O[C@@H](C)[C@H](O)[C@@H](O)[C@H]2O[C@@H]2OC[C@@H](O)[C@H](O)[C@H]2O)cc1 = 99.5
• Cc1ncc([N+](=O)[O-])n1CCO = 111
• COC(=O)CCC(=O)CN [Methyl Aminolevulinate Hydrochloride] = 102
• COc1cc2c(cc1OC(C)C)[C@H](c1ccc(Cl)cc1)N(c1ccc(N(C)C[C@H]3CC[C@H](N4CCN(C)C(=O)C4)CC3)cc1)C(=O)C2 = 2.94
• CN(C)CCc1c[nH]c2ccc(C[C@H]3COC(=O)N3)cc12 [Zolmitriptan (Zomig)] = 101
• Cc1ccc2nc(CN(CCN(Cc3nc4ccc(C)cc4[nH]3)Cc3nc4ccc(C)cc4[nH]3)Cc3nc4ccc(C)cc4[nH]3)[nH]c2c1 = 0.63
• CN1CCN(CCCN2c3ccccc3Sc3ccc(C(F)(F)F)cc32)CC1 [Trifluoperazine 2HCl] = 46.7
• CCn1cc(-c2cccc(C(F)(F)F)c2)c2sc(C(=N)NC3CCS(=O)(=O)CC3)cc2c1=O = 42.1
• O=C(Nc1cccc2c(=O)cc(-c3nnn[nH]3)oc12)c1ccc(OCCCCc2ccccc2)cc1 = 113
• C[C@@H]1CC[C@@]2(NC1)O[C@H]1C[C@H]3[C@@H]4CC=C5C[C@@H](O[C@@H]6O[C@H](CO)[C@@H](O[C@@H]7O[C@@H](C)[C@H](O)[C@@H](O)[C@H]7O)[C@H](O)[C@H]6O[C@@H]6O[C@@H](C)[C@H](O)[C@@H](O)[C@H]6O)CC[C@]5(C)[C@H]4CC[C@]3(C)[C@H]1[C@@H]2C = 87.2
• COc1cc(O)c(C(=O)Nc2nc(C(=O)NCCN(C(C)C)C(C)C)cs2)cc1OC [Acotiamide hydrochloride] = 98.7
• C[C@@H]1C(=O)O[C@H](C)[C@H]1C[C@@H](O)[C@](C)(O)[C@H]1CC[C@@]2(O)C3=CC(=O)[C@@H]4C[C@@H](O)[C@@H](O)C[C@]4(C)[C@H]3CC[C@]12C = 98.2

----------
- Test system: OCI-AML2
- RUN_DESCRIPTION: cell viability relative to vehicle control; higher = less cytotoxic
- PARTICULARS: 10 µM; SRSF2 genotype: P95H/wt
Parameter: cell viability. Scope: all listed entries.
MEASUREMENT_LABEL: cell viability (%)

• COCCOc1cnc2ccn([C@H](C)c3nnc4c(F)cc(-c5cnn(C)c5)cn34)c(=O)c2c1 = 82
• [F][Ti]([F])([F])[F] [Titanium tetrafluoride] = 98.9
• C[C@]12CC[C@@H]3c4ccc(O)cc4CC[C@H]3[C@@H]1CCC2=O = 101
• Nc1ncn([C@@H]2O[C@H](CO)[C@@H](O)[C@H]2O)c(=O)n1 = 35.8
• C=CC(=O)N1CC(=Cc2ccc([N+](=O)[O-])cc2)C(=O)C(=Cc2ccc([N+](=O)[O-])cc2)C1 = 2.08
• C=C(CCC=C(C)C)[C@H]1CC[C@]2(C)[C@@H]1[C@H](O)C[C@@H]1[C@@]3(C)CC[C@H](O[C@@H]4O[C@H](CO)[C@@H](O)[C@H](O)[C@H]4O[C@@H]4O[C@H](CO)[C@@H](O)[C@H](O)[C@H]4O)C(C)(C)[C@@H]3CC[C@]12C [Ginsenoside Rk1] = 100
• Cc1cc(-c2ccc(CC(=O)Nc3ccc(-c4cccnc4)cc3)cc2)ccn1 = 74
• O=c1cc(N2CCOCC2)oc2c1ccc1ccccc12 = 87.6

----------
Parameter: cell viability. Scope: all listed entries.
- System: MARIMO
- RUN_DESCRIPTION: cell viability relative to vehicle control; higher = less cytotoxic
- PARTICULARS: 10 µM; SRSF2 genotype: SRSF2 wt/wt
Structures can show the parent of a compound that is named as a salt.
MEASUREMENT_LABEL: cell viability (%)

* C[C@]1(O)C[C@@H](c2nc(-c3ccc4ccc(-c5ccccc5)nc4c3)c3c(N)nccn32)C1 | 40.8
* COc1cccc(C(N)=O)c1 [3-Methoxybenzamide] | 102
* C=CC(=O)Nc1cc(N2CCN(CC)CC2)ccc1Nc1cc(N(C)C(=O)Nc2c(Cl)c(OC)cc(OC)c2Cl)ncn1 | 31.7
* O=C(Nc1cnn2ccc(N3CCC[C@@H]3c3cc(F)ccc3F)nc12)N1CC[C@H](O)C1 [LOXO-101(sulfate)] | 118
* CC(C)n1nc(-c2cc3cc(O)ccc3[nH]2)c2c(N)ncnc21 | 23
* Oc1c(Cl)cc(Cl)c2cccnc12 | 14.7
* CN1[C@@H]2CC[C@H]1C[C@@H](OC(=O)c1c[nH]c3ccccc13)C2 [Tropisetron HCl] | 102
* CC(=O)OC1CC2CCC1(C)C2(C)C (configuration not stated) [Bornyl acetate] | 107
* CC1(C)S[C@@H]2[C@H](NC(=O)[C@H](N)c3ccccc3)C(=O)N2[C@H]1C(=O)O [Ampicillin sodium] | 109
* Nc1nc(N)c2nc(-c3ccccc3)c(N)nc2n1 | 101
* O=C(CCNC(=O)c1ccc(OC(F)(F)F)cc1)N[C@@H]1CCCc2ccccc21 | 105
* N[C@@H](CS)C(=O)O [L-Cysteine HCl] | 97.7
* Nc1ccn([C@@H]2O[C@H](CO)[C@@H](O)C2(F)F)c(=O)n1 | 24.4
* CS(=O)(=O)c1cccc(C[C@H](NC(=O)c2c(Cl)cc3c(c2Cl)CCN(C(=O)c2ccc4ccoc4c2)C3)C(=O)O)c1 | 102
* CNC(=O)c1cnn(-c2nc(N)c3ncn([C@@H]4O[C@H](CO)[C@@H](O)[C@H]4O)c3n2)c1 | 103
* NCCCNCCCCNCCCN | 111
* COC(=O)N[C@H](C(=O)N1CC2(CC2)C[C@H]1c1nc(-c2ccc3c(c2)C(F)(F)c2cc(-c4ccc5[nH]c([C@@H]6[C@H]7CC[C@H](C7)N6C(=O)[C@@H](NC(=O)OC)C(C)C)nc5c4)ccc2-3)c[nH]1)C(C)C | 90.2

----------
Parameter: cell viability. Scope: all listed entries.
- System: K562
- RUN_DESCRIPTION: cell viability relative to vehicle control; higher = less cytotoxic
- PARTICULARS: 10 µM; SRSF2 genotype: SRSF2 wt/wt
Counter-ions that a name gives are not always drawn.
MEASUREMENT_LABEL: cell viability (%)

* CCCn1/c(=N/C(=O)c2cccc(C(N)=O)c2)[nH]c2ccccc21 | 96.3
* CC/C(=C(\c1ccc(O)cc1)c1ccc(OCCNC)cc1)c1ccccc1 [Endoxifen HCl] | 24.5
* O=C(C=Cc1ccccc1)NC(NC(=S)Nc1ccc(Cl)cc1)C(Cl)(Cl)Cl (stereo not given) | 86.9
* NC1CC1c1ccc(-c2cccc(O)c2)cc1 (stereo not given) | 97.1
* CCC(C)(C)c1ccc(CC(C)CN2C[C@@H](C)O[C@@H](C)C2)cc1 (stereo not given in full) [Amorolfine Hydrochloride] | 99.7
* CN(C)/N=N/c1[nH]cnc1C(N)=O | 110
* Nc1nc2c(ncn2[C@@H]2O[C@H](CO)[C@@H](O)[C@H]2O)c(=O)[nH]1 | 93.2
* CCCCCCNC(=O)Nc1ccc(S(=O)(=O)Nc2ccc(CCNC[C@H](O)COc3ccc(O)cc3)cc2)cc1 | 82.8
* CC#CC(=O)Nc1ccc2ncnc(Nc3cccc(Br)c3)c2c1 | 20.9
* CCOC(=O)C1=C(N)Oc2ccc(Br)cc2C1C(C#N)C(=O)OCC (stereo not given) | 86.5

----------
Parameter: cell viability. Scope: all listed entries.
- Tested on: MOLM14
- RUN_DESCRIPTION: cell viability relative to vehicle control; higher = less cytotoxic
- PARTICULARS: 10 µM; SRSF2 genotype: SRSF2 wt/wt
Counter-ions that a name gives are not always drawn.
MEASUREMENT_LABEL: cell viability (%)

* C[C@@H]1O[C@@H](O[C@H]2[C@H](O[C@H]3CC[C@@]4(C)[C@@H](CC[C@]5(C)[C@@H]4CC=C4[C@@H]6CC(C)(C)CC[C@]6(C(=O)O)CC[C@]45C)[C@]3(C)CO)OC[C@H](O[C@@H]3O[C@H](CO)[C@@H](O)[C@H](O)[C@H]3O)[C@@H]2O)[C@H](O)[C@H](O)[C@H]1O | 0.59
* CCCCN(Cc1ccc(C(=O)NO)cc1)C(=O)Nc1ccccc1 | 2.04
* COc1ccc(CNc2nc(N3CCC[C@H]3CO)ncc2C(=O)NCc2ncccn2)cc1Cl | 104
* CNCC[C@@H](Oc1ccccc1C)c1ccccc1 [Atomoxetine HCl] | 106
* COc1cc(N)c(Cl)cc1C(=O)NC1CCN(CCCOc2ccc(F)cc2)CC1OC (configuration not stated) [Cisapride hydrate] | 102
* COc1c(C)c2c(c(O)c1C/C=C(\C)CCC(=O)O)C(=O)OC2 | 3.65
* CCS(=O)(=O)N1CC(CC#N)(n2cc(-c3ncnc4[nH]ccc34)cn2)C1 | 109
* CC[C@H]1OC(=O)C[C@@H](O)[C@H](C)[C@@H](O[C@@H]2O[C@H](C)[C@@H](O)[C@H](N(C)C)[C@H]2O)[C@@H](CCN2C[C@H](C)C[C@H](C)C2)C[C@@H](C)C(=O)/C=C/C(C)=C/[C@@H]1CO[C@@H]1O[C@H](C)[C@@H](O)[C@@H](OC)[C@H]1OC [Tilmicosin phosphate] | 101
* C=C[C@]1(C)C[C@@H](OC(=O)CSCCN(CC)CC)[C@]2(C)[C@H](C)CC[C@]3(CCC(=O)[C@H]32)[C@@H](C)[C@@H]1O | 87.9
* CCCCCOc1ccc(-c2ccc(-c3ccc(C(=O)N[C@H]4C[C@@H](O)[C@@H](O)NC(=O)[C@@H]5[C@@H](O)[C@@H](C)CN5C(=O)[C@H]([C@@H](C)O)NC(=O)[C@H]([C@H](O)[C@@H](O)c5ccc(O)cc5)NC(=O)[C@@H]5C[C@@H](O)CN5C(=O)[C@H]([C@@H](C)O)NC4=O)cc3)cc2)cc1 | 84.5
* CCCCOc1ccc(CC(=O)NO)cc1 | 93.1
* O=C(/C=C\n1cnc(-c2cc(C(F)(F)F)cc(C(F)(F)F)c2)n1)NNc1cnccn1 [Selinexor (KPT-330)] | 1.26
